Biological target: V264A mutant 5-HT3A receptor (Homo sapiens, UniProt P46098, V286A)
Test: Two-electrode voltage clamp of I5-HT in oocytes expressing V264A mutant 5-HT3A receptor
Conditions: 100 μM 5-HT, −80 mV, unit not printed in Table 3, taken
Method: The experimental procedure follows the approach outlined in the previous study, but is summarized briefly as follows. […] After transcription, the cRNA was dissolved in nuclease-free water, and its size and concentration were assessed via electrophoresis and spectrophotometry (DeNovix Inc., USA). […]
measurement_kind: pIC50
Just the number, please; pIC50 means minus log10 of the concentration in mol/L.

Give the measured pIC50 of `CO[C@]12C[C@@H](COC(=O)c3cncc(Br)c3)CN(C)[C@@H]1Cc1cn(C)c3cccc2c13` .
4.26

====

Molecular target: Human 5-hydroxytryptamine receptor 3A subtype (wild-type 5-HT3A receptor) (Homo sapiens, UniProt P46098)
Experiment: Two-electrode voltage clamp of 5-HT-induced inward current (I5-HT) in Xenopus oocytes expressing wild-type 5-HT3A receptor
Settings: wild type; co-treatment with 100 μM 5-HT; holding potential −80 mV
measurement_kind: IC50 (µM)
Record the value in µM, omitting the unit from your answer.

Give the measured IC50 of `CO[C@]12C[C@@H](COC(=O)c3cncc(Br)c3)CN(C)[C@@H]1Cc1cn(C)c3cccc2c13` .
7.7

====

Target: L260A mutant 5-HT3A receptor (Homo sapiens, UniProt P46098, L282A)
Sequence (P46098 24-478 L282A): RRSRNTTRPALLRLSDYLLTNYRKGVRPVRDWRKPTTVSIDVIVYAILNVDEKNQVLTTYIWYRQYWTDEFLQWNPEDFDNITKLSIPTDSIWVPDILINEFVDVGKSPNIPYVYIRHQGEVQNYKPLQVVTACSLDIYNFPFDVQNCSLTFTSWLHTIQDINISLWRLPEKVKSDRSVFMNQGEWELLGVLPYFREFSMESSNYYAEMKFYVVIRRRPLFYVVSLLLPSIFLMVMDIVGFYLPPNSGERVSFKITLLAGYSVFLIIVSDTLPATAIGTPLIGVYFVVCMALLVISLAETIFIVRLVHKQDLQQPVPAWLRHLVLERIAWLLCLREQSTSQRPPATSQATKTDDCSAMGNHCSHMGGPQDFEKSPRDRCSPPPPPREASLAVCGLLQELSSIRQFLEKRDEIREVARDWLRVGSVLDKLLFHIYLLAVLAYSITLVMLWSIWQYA
Experiment: Two-electrode voltage clamp of I5-HT in oocytes expressing L260A mutant 5-HT3A receptor
Settings: 100 μM 5-HT, −80 mV, unit not printed in Table 3, taken
Protocol: The experimental procedure follows the approach outlined in the previous study, but is summarized briefly as follows. […] After transcription, the cRNA was dissolved in nuclease-free water, and its size and concentration were assessed via electrophoresis and spectrophotometry (DeNovix Inc., USA). […]
measurement_kind: pIC50
Just the number, please; pIC50 means minus log10 of the concentration in mol/L.

Give the reported pIC50 for CO[C@]12C[C@@H](COC(=O)c3cncc(Br)c3)CN(C)[C@@H]1Cc1cn(C)c3cccc2c13 [nicergoline] (system: L260A mutant 5-HT3A receptor (Homo sapiens, UniProt P46098, L282A)).
4.24

From: paper PMC11813358
